Value source: patent US11319299B2

system_under_test: WDR5 (Homo sapiens (Human), UniProt P61964)
assay_comment: Surface Plasmon Resonance (SPR) assay, KD and residence time
Type: binding
particulars: surface plasmon resonance (SPR) assay; read-out: WDR5 binding affinity (KD)
Threshold check on Kd: strictly below 3 nM is MET; on or above 3 nM is NOT MET.

1. Cc1csc(C(=O)Nc2cc(-c3cnc(N4CCOCC4)nc3)c(F)cc2N2CCN(C)C(C)C2)n1 (stereo in doubt)	NOT MET
2. C[C@@H]1CN(c2cc(F)c(-c3cncc(C(F)(F)F)c3)cc2NC(=O)c2c[nH]c(=O)cc2C(F)(F)F)C[C@H](C)N1C	MET
3. CC1CN(c2cc(F)c(-c3cnc4c(c3)OCCO4)cc2NC(=O)c2c[nH]c(=O)cc2C(F)(F)F)CCN1C (stereo in doubt)	MET
4. COc1cc(=O)[nH]cc1C(=O)Nc1cc(-c2cnc(N3CCOCC3)nc2)c(F)cc1N1C[C@@H](C)N(C)[C@@H](C)C1	NOT MET
5. C[C@@H]1CN(c2cc(F)c(C3=CCCN(C(=O)OC(C)(C)C)C3)cc2NC(=O)c2c[nH]c(=O)cc2C(F)(F)F)C[C@H](C)N1C	MET
6. C[C@@H]1CN(c2cc(F)c(-c3cnc(N4CCOC(C)(C)C4)nc3)cc2NC(=O)c2c[nH]c(=O)cc2C(F)(F)F)C[C@H](C)N1C	MET
7. CC1CN(c2cc(F)c(-c3cnc(N4CCOCC4)nc3)cc2NC(=O)c2ccco2)CCN1C (stereo in doubt)	NOT MET
8. C[C@H]1CN(c2cc(F)c(-c3cnc(N4CCOCC4)nc3)cc2NC(=O)c2ccc(F)cc2C(F)(F)F)C[C@H](C)N1C (racemic)	NOT MET
9. C[C@@H]1CN(c2cc(F)c(-c3cnc(N4CCOCC4)nc3)cc2NC(=O)c2sccc2C(F)(F)F)C[C@H](C)N1C	NOT MET

----------
Recorded Kd values for a group of compounds are listed next.
system_under_test: WDR5 (Homo sapiens (Human))
assay_comment: Surface Plasmon Resonance (SPR) assay, KD and residence time
Assay type: binding
particulars: surface plasmon resonance (SPR) assay; read-out: WDR5 binding affinity (KD)
quantity: Kd (nM)

1) C[C@@H]1CN(c2cc(F)c(-c3cnc(OCc4ccccc4)c(C#N)c3)cc2NC(=O)c2c[nH]c(=O)cc2C(F)(F)F)C[C@H](C)N1C [Example 99]	11.1
2) CC1CN(c2cc(F)c(-c3cnc(N4CCN(C)CC4)nc3)cc2NC(=O)c2ccc(F)cc2C(F)(F)F)CCN1C (stereo in doubt) [Example 316]	0.989
3) CC1CN(c2cc(F)c(-c3cnc(C#N)nc3)cc2NC(=O)c2c[nH]c(=O)cc2C(F)(F)F)CCN1C (stereo in doubt) [Example 197]	0.681
4) C[C@@H]1CN(c2ncc(-c3cc(NC(=O)c4c[nH]c(=O)cc4C(F)F)c(N4C[C@@H](C)N(C)[C@@H](C)C4)cc3F)cn2)C[C@H](C)O1 [Example 385]	0.72
5) C[C@@H]1CN(c2cc(F)c(-c3ccnc(N4CCOCC4)c3)cc2NC(=O)c2cn(C)c(=O)cc2C(F)(F)F)C[C@H](C)N1C [Example 226]	7.99
6) C[C@@H]1CN(c2cc(F)c(-c3cnc(N4CCOCC4)nc3)cc2NC(=O)c2c(F)cccc2C(F)(F)F)C[C@H](C)N1C [Example 297]	22.9
7) C[C@@H]1CN(c2cc(F)c(-c3cnc(N4CCOCC4)nc3)cc2NC(=O)c2cncnc2C(F)(F)F)C[C@H](C)N1C [Example 187]	209
8) CC1CN(c2cc(F)c(-c3cnc(N4CC(C)(C)OC(C)(C)C4)nc3)cc2NC(=O)c2c[nH]c(=O)cc2C(F)(F)F)CCN1C (stereo in doubt) [Example 319]	1.61
9) C[C@@H]1CN(c2cc(F)c(-c3ccc(OCC4CC4)nc3)cc2NC(=O)c2cc(Cl)cc(Cl)c2)C[C@H](C)N1C [Example 250]	76.9
10) C[C@@H]1CN(c2cc(F)c(-c3cnc(N4CCOCC4)nc3)cc2NC(=O)c2ccccc2)C[C@H](C)N1C [Example 74]	253
11) C[C@@H]1CN(c2cc(F)c(-c3cc(Cl)c(O)c(C#N)c3)cc2NC(=O)c2c[nH]c(=O)cc2C(F)(F)F)C[C@H](C)N1C [Example 98]	19.5
12) CN(C)[C@@H]1CCN(c2cc(F)c(-c3cnc(N4CCOCC4)nc3)cc2NC(=O)c2cn(C)c(=O)cc2C(F)(F)F)C1 [Example 184]	9.8
13) COc1cc(N2CCC=C(c3cc(NC(=O)c4c[nH]c(=O)cc4C(F)(F)F)c(N4C[C@@H](C)N(C)[C@@H](C)C4)cc3F)C2)ncn1 [Example 365]	0.246
14) C[C@@H]1CN(c2cc(F)c(C3=CCCN(C(=O)OC(C)(C)C)C3)cc2NC(=O)c2cn(C)c(=O)cc2C(F)(F)F)C[C@H](C)N1C [Example 325]	7.3

----------
Listed here: items and their measured Kd.
system_under_test: WDR5 (Homo sapiens (Human))
assay_comment: Surface Plasmon Resonance (SPR) assay, KD and residence time
Format: binding
particulars: surface plasmon resonance (SPR); read-out: WDR5 binding affinity (KD)
Description: (i) Surface Plasmon Resonance (SPR) Assay The lifetime of a drug on its target is determined by two rate constants: the association rate constant (kon) and the dissociation rate constant (koff). […] Drug-target residence time is defined as the reciprocal of koff (τ=1/koff), making the residence time a parameter that is easily measured by routine in vitro assay methods.
quantity: Kd (nM)

1. C[C@@H]1CN(c2cc(F)c(C3=CCCN(c4ncc(C#N)cn4)C3)cc2NC(=O)c2c[nH]c(=O)cc2C(F)(F)F)C[C@H](C)N1C [Example 583]	0.877
2. C[C@@H]1CN(c2cc(F)c(C3=CCCN(c4ncc(C#N)s4)CC3)cc2NC(=O)c2c[nH]c(=O)cc2C(F)(F)F)C[C@H](C)N1C [Example 700]	7.31
3. C[C@@H]1CN(c2cc(F)c(-c3nc(C(=O)N4CCOCC4)cs3)cc2NC(=O)c2c[nH]c(=O)cc2C(F)(F)F)C[C@H](C)N1C [Example 486]	2.44
4. C[C@@H]1CN(c2cc(F)c(-c3ccc(C(N)=O)c(F)c3F)cc2NC(=O)c2c[nH]c(=O)cc2C(F)(F)F)C[C@H](C)N1C [Example 670]	3.85
5. CC(C)OC(=O)N1CC=C(c2cc(NC(=O)c3ccc(F)cc3C(F)(F)F)c(N3CCN(C)C(C)C3)cc2F)CC1 (stereo in doubt) [Example 727]	2.46
6. C[C@@H]1CN(c2cc(F)c(C3=CCN(C(=O)OC4(C)CCC4)CC3)cc2NC(=O)c2c[nH]c(=O)cc2C(F)F)C[C@H](C)N1C [Example 651]	0.897
